Origin of values: patent US9796711B2

pEC50 for assorted molecules
experimental_target: ΔF508-CFTR (Homo sapiens, UniProt P13569, DEL508-508)
Construct: host or cells: CFBE41o-, doxycycline-inducible
Sequence (P13569 with tags, fused parts or gaps DEL508-508): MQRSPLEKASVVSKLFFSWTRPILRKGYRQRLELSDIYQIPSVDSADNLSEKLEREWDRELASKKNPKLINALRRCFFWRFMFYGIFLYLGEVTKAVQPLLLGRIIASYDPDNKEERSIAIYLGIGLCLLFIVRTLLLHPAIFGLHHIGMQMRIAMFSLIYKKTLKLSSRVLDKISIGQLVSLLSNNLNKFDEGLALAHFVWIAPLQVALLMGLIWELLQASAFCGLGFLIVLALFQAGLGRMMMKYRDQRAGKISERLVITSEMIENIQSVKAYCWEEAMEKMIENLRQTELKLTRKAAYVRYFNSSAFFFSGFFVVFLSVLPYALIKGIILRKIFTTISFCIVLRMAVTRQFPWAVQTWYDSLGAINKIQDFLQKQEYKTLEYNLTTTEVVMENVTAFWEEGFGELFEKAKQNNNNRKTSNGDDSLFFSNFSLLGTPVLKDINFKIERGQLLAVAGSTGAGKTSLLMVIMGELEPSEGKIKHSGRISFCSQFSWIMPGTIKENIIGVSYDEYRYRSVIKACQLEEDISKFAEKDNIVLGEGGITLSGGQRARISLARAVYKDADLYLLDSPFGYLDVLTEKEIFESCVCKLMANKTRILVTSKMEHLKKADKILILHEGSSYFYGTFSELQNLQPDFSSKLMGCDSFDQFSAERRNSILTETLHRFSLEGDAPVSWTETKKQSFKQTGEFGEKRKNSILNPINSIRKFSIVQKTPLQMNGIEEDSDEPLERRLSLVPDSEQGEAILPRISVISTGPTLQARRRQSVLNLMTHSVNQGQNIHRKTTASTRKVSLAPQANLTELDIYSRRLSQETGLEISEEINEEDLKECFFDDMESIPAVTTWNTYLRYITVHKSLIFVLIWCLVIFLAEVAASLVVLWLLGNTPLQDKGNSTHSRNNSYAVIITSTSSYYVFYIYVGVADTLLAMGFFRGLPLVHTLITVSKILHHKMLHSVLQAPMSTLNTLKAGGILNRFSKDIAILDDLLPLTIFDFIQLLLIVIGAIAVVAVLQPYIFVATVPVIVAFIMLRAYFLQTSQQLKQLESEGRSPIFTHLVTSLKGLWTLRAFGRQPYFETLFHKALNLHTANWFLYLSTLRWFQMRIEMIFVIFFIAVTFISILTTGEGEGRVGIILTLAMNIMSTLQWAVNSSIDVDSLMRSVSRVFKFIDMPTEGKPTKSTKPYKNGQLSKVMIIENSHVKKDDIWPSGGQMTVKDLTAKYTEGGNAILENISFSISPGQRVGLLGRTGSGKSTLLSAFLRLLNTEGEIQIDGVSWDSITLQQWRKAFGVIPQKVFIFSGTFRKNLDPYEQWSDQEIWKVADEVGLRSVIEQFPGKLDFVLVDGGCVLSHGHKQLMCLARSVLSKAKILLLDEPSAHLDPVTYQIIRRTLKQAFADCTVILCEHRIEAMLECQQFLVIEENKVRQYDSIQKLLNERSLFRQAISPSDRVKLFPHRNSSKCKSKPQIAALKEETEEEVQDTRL
assay_procedure: CFTR cell surface levels using HRP-tagged ΔF508-CFTR expressing CFBE cells, intrinsic corrector capacity
Format: cell-based
condition_summary: HRP-tagged ΔF508-CFTR expressing CFBE cells; intrinsic corrector capacity (no co-corrector); 33° C., 20 hours; read-out: EC50
pEC50: −log10 of the molar value.
measured_endpoint: pEC50

>>> result("O=C(O)c1cc(N2CCC(N3CCOCC3)CC2)c2c(C3CCC3)nn(-c3ccc4c(c3)CC4)c2n1")
6.72
>>> result("COC1CCCN(c2cc(C(=O)O)nc3c2c(C2CCC2)nn3-c2ccccc2)C1 (centres unmarked)")
6.21
>>> result("CCN(CC)C1CCN(c2cc(C(=O)O)nc3c2c(C(C)C)nn3-c2ccc(F)cc2)CC1")
6.11
>>> result("O=C(O)c1cc(N2CC[C@H](O)[C@H](F)C2)c2c(C3CCC3)nn(-c3ccccc3)c2n1")
5.91
>>> result("O=C(O)c1cc(OC2CCC(F)(F)CC2)c2c(C3CCC3)nn(-c3ccccc3)c2n1")
6.48
>>> result("CC1(O)CN(c2cc(C(=O)O)nc3c2c(C2CCC2)nn3-c2ccccc2)C1")
5.48
>>> result("CC(C)c1nn(-c2ccc(F)cc2)c2nc(C(=O)O)cc(N3CCC(C)(N4CCCCC4)CC3)c12")
5.91
>>> result("CCN(CC)CCCOc1cc(C(=O)O)nc2c1c(C1CCC1)nn2-c1ccccc1")
5.48
>>> result("O=C(O)c1cc(CN2CCOCC2)c2c(C3CCC3)nn(-c3ccc(F)cc3)c2n1")
5.48
>>> result("O=C(O)c1cc(N2CCN(CC(=O)N3CCOCC3)CC2)c2c(C3CCC3)nn(-c3ccccc3)c2n1")
5.48
>>> result("O=C(O)c1cc(N2CC3(CCCCO3)C2)c2c(C3CCC3)nn(-c3ccccc3)c2n1")
5.97
>>> result("O=C(O)c1cc(N2CCC3(CC2)CC(O)C3)c2c(C3CCC3)nn(-c3ccccc3)c2n1")
6.52
>>> result("CC1(COc2cc(C(=O)O)nc3c2c(C2CCC2)nn3-c2ccccc2)COCOC1")
6.78
>>> result("CN(C)[C@H]1C[C@@H](Oc2cc(C(=O)O)nc3c2c(C2CCC2)nn3-c2ccccc2)C1")
5.63
>>> result("COCCN1CCN(C2CCN(c3cc(C(=O)O)nc4c3c(C3CCC3)nn4-c3ccccc3)CC2)CC1")
6.31
>>> result("O=CN1CCN(CC2CCN(c3cc(C(=O)O)nc4c3c(C3CCC3)nn4-c3ccccc3)CC2)CC1")
6.44
>>> result("COC1CCN(C2CCN(c3cc(C(=O)O)nc4c3c(C3CCC3)nn4-c3ccc(F)cc3)CC2)C1 (centres unmarked)")
5.92
